TEST CONTEXT: 303.15 K; 100 kPa; Liquid; Capillary tube (Ostwald / Ubbelohde) method
± gives the expanded uncertainty stated by the source.
For each of the compounds below, state its viscosity.

Lookup: So what does the record say about viscosity for Clc1ccccc1Cl ?
Found: 1.301 ± 0.014 mPa·s

Lookup: Cc1cccc(Cl)c1 , same question.
Found: 0.782 ± 0.012 mPa·s

Lookup: Cc1ccccc1[N+](=O)[O-] , same question.
Found: 1.908 ± 0.017 mPa·s

Lookup: Cc1ccccc1Cl , same question.
Found: 0.884 ± 0.012 mPa·s

Lookup: Clc1ccc(Cl)c(Cl)c1 , same question.
Found: 1.611 ± 0.015 mPa·s

Lookup: Cc1cccc([N+](=O)[O-])c1 , same question.
Found: 1.775 ± 0.016 mPa·s

Lookup: Clc1cccc(Cl)c1 , same question.
Found: 1.023 ± 0.013 mPa·s

Lookup: Cc1ccc(Cl)cc1 , same question.
Found: 0.902 ± 0.012 mPa·s

Lookup: CC(=O)N(C)C [N,N-dimethylethanamide] , same question.
Found: 0.865 ± 0.012 mPa·s

----------
TEST CONTEXT: 303.15 K; 101.33 kPa; Liquid; Pycnometric method
± gives the expanded uncertainty stated by the source.
For each of the molecules below, state its mass density.

Lookup: So what does the record say about mass density for Clc1cccc(Cl)c1 [1,3-dichlorobenzene] ?
Found: 1277.16 ± 13 kg/m3

Lookup: CC(=O)N(C)C [N,N-dimethylethanamide] , same question.
Found: 941.35 ± 9.4 kg/m3

Lookup: Cc1cccc([N+](=O)[O-])c1 [3-nitrotoluene] , same question.
Found: 1147.67 ± 12 kg/m3

Lookup: Cc1ccccc1Cl [2-chlorotoluene] , same question.
Found: 1072.82 ± 11 kg/m3

Lookup: Clc1ccc(Cl)c(Cl)c1 [1,2,4-trichlorobenzene] , same question.
Found: 1442.12 ± 14 kg/m3

Lookup: Clc1ccccc1Cl [1,2-dichlorobenzene] , same question.
Found: 1299.2 ± 13 kg/m3

Lookup: Cc1ccccc1[N+](=O)[O-] [2-nitrotoluene] , same question.
Found: 1153.24 ± 12 kg/m3
